Cited source for all entries: ChEMBL document CHEMBL1671806

- Organism: Homo sapiens
- ASSAY TEXT: Metabolic stability in human liver microsome by LC-MS/MS method
- CONDITION LABEL: liver microsomes
compounds and their reported half-life
QUANTITY KIND: half-life

CC(C)N1C(=O)C(=O)N=C1/N=C(\NCC(C)(C)C)Nc1ccc(Cl)c(Cl)c1    > 60 min
CC(C)N1C(=O)C(=O)N=C1/N=C(/Nc1ccc(Cl)c(Cl)c1)NC1C2CC3CC(C2)CC1C3 (centres undefined)    5.58 min
CC(C)N1C(=O)C(=O)N=C1/N=C(\NCCCCCCNC(=O)OC(C)(C)C)Nc1ccc(Cl)c(Cl)c1    12.5 min
CON/C(=N\C1=NC(=O)C(=O)N1C(C)C)Nc1ccc(Cl)c(Cl)c1    > 60 min
CC(C)N1C(=O)C(=O)N=C1/N=C(\NCCN(C)C)Nc1ccc(Cl)c(Cl)c1    > 60 min
CC(C)N1C(=O)C(=O)N=C1/N=C(\NCCCN(C)C)Nc1ccc(Cl)c(Cl)c1    > 60 min
CC(C)N1C(=O)C(=O)N=C1/N=C(/Nc1ccc(Cl)c(Cl)c1)NC(C)(C)C    > 60 min
CCN(CC)CCN/C(=N\C1=NC(=O)C(=O)N1C(C)C)Nc1ccc(Cl)c(Cl)c1    31.5 min
CC(C)N1C(=O)C(=O)N=C1/N=C(\NCCCCN1CCCC1)Nc1ccc(Cl)c(Cl)c1    > 60 min

----------
molecules and their reported half-life
- Species: Mus musculus
- ASSAY TEXT: Metabolic stability in mouse liver microsome by LC-MS/MS method
- CONDITION LABEL: liver microsomes
QUANTITY KIND: half-life

CC(C)N1C(=O)C(=O)N=C1/N=C(\NCCN(C)C)Nc1ccc(Cl)c(Cl)c1    > 1 h
CC(C)N1C(=O)C(=O)N=C1/N=C(/Nc1ccc(Cl)c(Cl)c1)NC1C2CC3CC(C2)CC1C3 (stereo not given)    0.124 h
C=CCON/C(=N\C1=NC(=O)C(=O)N1C(C)C)Nc1ccc(Cl)c(Cl)c1    > 1 h
CC(C)N1C(=O)C(=O)N=C1/N=C(\NCC(C)(C)C)Nc1ccc(Cl)c(Cl)c1    > 1 h
CC(C)N1C(=O)C(=O)N=C1/N=C(\NCCCN(C)C)Nc1ccc(Cl)c(Cl)c1    > 1 h
CCCCCCN/C(=N\C1=NC(=O)C(=O)N1C(C)C)Nc1ccc(Cl)c(Cl)c1    0.131 h
CC(C)N1C(=O)C(=O)N=C1/N=C(\NOCc1ccccc1)Nc1ccc(Cl)c(Cl)c1    0.214 h
CC(C)N1C(=O)C(=O)N=C1/N=C(/Nc1ccc(Cl)c(Cl)c1)NC(C)(C)C    > 1 h
CC(C)N1C(=O)C(=O)N=C1/N=C(\NCCCCN1CCCC1)Nc1ccc(Cl)c(Cl)c1    > 1 h
CC(C)N1C(=O)C(=O)N=C1/N=C(\NCc1ccccc1)Nc1ccc(Cl)c(Cl)c1    > 1 h
CC(C)N/C(=N\C1=NC(=O)C(=O)N1C(C)C)Nc1ccc(Cl)c(Cl)c1    > 1 h
CC(C)N1C(=O)C(=O)N=C1/N=C(\NCCCCCCNC(=O)OC(C)(C)C)Nc1ccc(Cl)c(Cl)c1    0.182 h
CN/C(=N\C1=NC(=O)C(=O)N1C(C)C)Nc1ccc(Cl)c(Cl)c1    > 1 h
CON/C(=N\C1=NC(=O)C(=O)N1C(C)C)Nc1ccc(Cl)c(Cl)c1    > 1 h
CCON/C(=N\C1=NC(=O)C(=O)N1C(C)C)Nc1ccc(Cl)c(Cl)c1    > 1 h
CCN(CC)CCN/C(=N\C1=NC(=O)C(=O)N1C(C)C)Nc1ccc(Cl)c(Cl)c1    0.294 h
CC(C)N1C(=O)C(=O)N=C1/N=C(\NCCN1CCCC1)Nc1ccc(Cl)c(Cl)c1    0.886 h
CC(C)N1C(=O)C(=O)N=C1/N=C(\Nc1ccccc1)Nc1ccc(Cl)c(Cl)c1    > 1 h
CCN/C(=N\C1=NC(=O)C(=O)N1C(C)C)Nc1ccc(Cl)c(Cl)c1    > 1 h
CC(C)N1C(=O)C(=O)N=C1/N=C(\NOC(C)(C)C)Nc1ccc(Cl)c(Cl)c1    > 1 h

----------
- Tested on: Plasmodium falciparum
- ASSAY TEXT: Antimicrobial activity against Plasmodium falciparum TM91C235 by microdilution method
- Assay type: functional, organism-based
- CONDITION LABEL: Plasmodium falciparum, TM91C235; read-out: IC50
compounds and their reported IC50
QUANTITY KIND: IC50

CC(C)N1C(=O)C(=O)N=C1/N=C(\NCCCCN1CCCC1)Nc1ccc(Cl)c(Cl)c1    > 5 µg/mL
CON/C(=N\C1=NC(=O)C(=O)N1C(C)C)Nc1ccc(Cl)c(Cl)c1    > 5 µg/mL
CCN/C(=N\C1=NC(=O)C(=O)N1C(C)C)Nc1ccc(Cl)c(Cl)c1    > 5 µg/mL
CN/C(=N\C1=NC(=O)C(=O)N1C(C)C)Nc1ccc(Cl)c(Cl)c1    > 5 µg/mL
CC(C)N1C(=O)C(=O)N=C1/N=C(\NCCCN(C)C)Nc1ccc(Cl)c(Cl)c1    > 5 µg/mL
CCN(CC)CCN/C(=N\C1=NC(=O)C(=O)N1C(C)C)Nc1ccc(Cl)c(Cl)c1    > 5 µg/mL
CC(C)N1C(=O)C(=O)N=C1/N=C(/Nc1ccc(Cl)c(Cl)c1)NC1C2CC3CC(C2)CC1C3 (stereo not given)    2.07 µg/mL
CC(C)N1C(=O)C(=O)N=C1/N=C(/Nc1ccc(Cl)c(Cl)c1)NC(C)(C)C    1.36 µg/mL
CC(C)N1C(=O)C(=O)N=C1/N=C(\Nc1ccccc1)Nc1ccc(Cl)c(Cl)c1    2.6 µg/mL
CC(C)N1C(=O)C(=O)N=C1/N=C(\NCCN1CCCC1)Nc1ccc(Cl)c(Cl)c1    > 5 µg/mL

----------
- Test system: Plasmodium falciparum
- ASSAY TEXT: Antimicrobial activity against Plasmodium falciparum W2 by microdilution method
- Format: functional, organism-based
QUANTITY KIND: IC50

CC(C)N1C(=O)C(=O)N=C1/N=C(/Nc1ccc(Cl)c(Cl)c1)NC1C2CC3CC(C2)CC1C3 (stereo not given)    2.68 µg/mL
CC(C)N1C(=O)C(=O)N=C1/N=C(\NOC(C)(C)C)Nc1ccc(Cl)c(Cl)c1    1.14 µg/mL
C=CCON/C(=N\C1=NC(=O)C(=O)N1C(C)C)Nc1ccc(Cl)c(Cl)c1    6.7 µg/mL
CCCCCCN/C(=N\C1=NC(=O)C(=O)N1C(C)C)Nc1ccc(Cl)c(Cl)c1    2.62 µg/mL
CCN/C(=N\C1=NC(=O)C(=O)N1C(C)C)Nc1ccc(Cl)c(Cl)c1    1.67 µg/mL

----------
- Tested on: Plasmodium falciparum
- ASSAY TEXT: Antimicrobial activity against Plasmodium falciparum D6 by microdilution method
- Type: functional, organism-based
- CONDITION LABEL: Plasmodium falciparum, D6; read-out: IC50
QUANTITY KIND: IC50

CC(C)N1C(=O)C(=O)N=C1/N=C(\NCCCN(C)C)Nc1ccc(Cl)c(Cl)c1    > 5 mg/L
CC(C)N/C(=N\C1=NC(=O)C(=O)N1C(C)C)Nc1ccc(Cl)c(Cl)c1    > 6 mg/L
CCN/C(=N\C1=NC(=O)C(=O)N1C(C)C)Nc1ccc(Cl)c(Cl)c1    > 5 mg/L
CN/C(=N\C1=NC(=O)C(=O)N1C(C)C)Nc1ccc(Cl)c(Cl)c1    > 5 mg/L
CCON/C(=N\C1=NC(=O)C(=O)N1C(C)C)Nc1ccc(Cl)c(Cl)c1    > 5 mg/L
CCN(CC)CCN/C(=N\C1=NC(=O)C(=O)N1C(C)C)Nc1ccc(Cl)c(Cl)c1    > 5 mg/L
